# Test system: UACC812
# TEST_SUMMARY: -log10 GI50 (growth inhibition 50%) (-log10(M)); higher = more potent growth inhibition
OBSERVED_PROPERTY: -log10 GI50

[Q] Given CCC[C@H](N[C@H]1CCc2cc(F)cc(F)c2C1)C(=O)Nc1cn(C(C)(C)CNCC(C)(C)C)cn1 , state its recorded -log10 GI50.
[A] < 4.18

[Q] Suppose we examine the molecule CN(C)C/C=C/C(=O)Nc1cc2c(Nc3ccc(F)c(Cl)c3)ncnc2cc1O[C@H]1CCOC1 ; what -log10 GI50 value has been reported?
[A] 8.55

[Q] Name the reported -log10 GI50 value associated with the molecule N.N.[Cl][Pt][Cl] [Cisplatin]
[A] 5.48

[Q] Name the reported -log10 GI50 value associated with the molecule CCc1c2c(nc3ccc(OC(=O)N4CCC(N5CCCCC5)CC4)cc13)-c1cc3c(c(=O)n1C2)COC(=O)[C@]3(O)CC
[A] 5.49

[Q] Report -log10 GI50 for O=C(O)C(=O)O.[NH-][C@@H]1CCCC[C@H]1[NH-].[Pt+2] please.
[A] 5.85

[Q] I am curious: what -log10 GI50 value has been reported for CC(C)C[C@@H](C=O)NC(=O)[C@H](CC(C)C)NC(=O)[C@H](CC(C)C)NC(=O)OCc1ccccc1 ?
[A] 6.72

[Q] State the recorded -log10 GI50 for this entry: COc1cccc(-c2cc(=O)c3ccccc3o2)c1N
[A] 4.65

[Q] Fill blank: measured -log10 GI50 of the molecule CO[C@H]1C[C@@H]2CC[C@@H](C)[C@@](O)(O2)C(=O)C(=O)N2CCCC[C@H]2C(=O)O[C@H]([C@H](C)C[C@@H]2CC[C@@H](O)[C@H](OC)C2)CC(=O)[C@H](C)/C=C(\C)[C@@H](O)[C@@H](OC)C(=O)[C@H](C)C[C@H](C)/C=C/C=C/C=C/1C is ____.
[A] 7.33

[Q] Endpoint output: -log10 GI50 of O=C(c1ccc(Nc2nccc(-c3cc4ccccc4s3)n2)cc1)N1CCC(N2CCCC2)CC1 . Value?
[A] 5.09

[Q] For CO[C@H]1C[C@@H]2CC[C@@H](C)[C@@](O)(O2)C(=O)C(=O)N2CCCC[C@H]2C(=O)O[C@H]([C@H](C)C[C@@H]2CC[C@@H](OC(=O)C(C)(CO)CO)[C@H](OC)C2)CC(=O)[C@H](C)/C=C(\C)[C@@H](O)[C@@H](OC)C(=O)[C@H](C)C[C@H](C)/C=C/C=C/C=C/1C , what is its reported -log10 GI50?
[A] 6.21

[Q] Requested field: -log10 GI50. Item: CCn1cc(-c2ccnc3[nH]c(-c4cccc(CN(C)C)c4)cc23)c(-c2ccc(NC(=O)N(C)C)cc2)n1
[A] 5.07

[Q] Record request: -log10 GI50 value, item CC(C(C)N1CC(=O)NC(=O)C1)N1CC(=O)NC(=O)C1 (centres undefined)
[A] < 4.48

[Q] I am curious: what -log10 GI50 value has been reported for C#Cc1cccc(Nc2ncnc3cc(OCCOC)c(OCCOC)cc23)c1 ?
[A] 4.91

[Q] Consider the molecule shown here: COc1ncc(-c2ccc3nccc(-c4ccnnc4)c3c2)cc1NS(=O)(=O)c1ccc(F)cc1F What is its recorded -log10 GI50?
[A] 8.49

[Q] Value lookup for -log10 GI50; key = Cn1c(=O)n(-c2ccc(C(C)(C)C#N)cc2)c2c3cc(-c4cnc5ccccc5c4)ccc3ncc21
[A] 5.69

[Q] Fill in the blank: the reported -log10 GI50 of C/C(=C\c1csc(C)n1)[C@@H]1C[C@@H]2O[C@]2(C)CCC[C@H](C)[C@H](O)[C@@H](C)C(=O)C(C)(C)[C@@H](O)CC(=O)N1 [Ixabepilone] is ____.
[A] 5.24

[Q] Entry under review: CCNCCCCNCCCCNCCCCNCCCCNC/C=C/CNCCCCNCCCCNCCCCNCCCCNCC . Reported -log10 GI50?
[A] 6.78

[Q] Need -log10 GI50 of CC(/C=C/C(=O)NO)=C\[C@@H](C)C(=O)c1ccc(N(C)C)cc1 , thanks.
[A] 5.05

[Q] Item under review: COc1cc2c(Nc3ccc(NC(=O)c4ccccc4)cc3)ncnc2cc1OCCCN1CCOCC1 . Reported -log10 GI50?
[A] 5.41

[Q] // lookup -log10 GI50 for C=CCNC1=C2C[C@@H](C)C[C@H](OC)[C@H](O)[C@@H](C)/C=C(\C)[C@H](OC(N)=O)[C@@H](OC)/C=C\C=C(/C)C(=O)NC(=CC1=O)C2=O
[A] 7.96

[Q] Field request: -log10 GI50 | item: CC(=O)Nc1cccc(-n2c(=O)n(C3CC3)c(=O)c3c(Nc4ccc(I)cc4F)n(C)c(=O)c(C)c32)c1
[A] < 4.78

[Q] # query: -log10 GI50 of entry CNC(=O)c1c(F)cccc1Nc1nc(Nc2cc3c(cc2OC)CCN3C(=O)CN(C)C)nc2[nH]ccc12
[A] 5.31

[Q] Using the record for O=c1cc(-c2ccccc2)oc2cc(O)c(O)c(O)c12 , report its -log10 GI50.
[A] 4.19

[Q] Could you share which -log10 GI50 value was measured for Cc1ccc(NC(=O)c2ccc(CN3CCN(C)CC3)cc2)cc1Nc1nccc(-c2cccnc2)n1 ?
[A] 4.98

[Q] Item under review: C[C@]12O[C@H](C[C@]1(O)CO)n1c3ccccc3c3c4c(c5c6ccccc6n2c5c31)CNC4=O . Reported -log10 GI50?
[A] 5.75

[Q] Which -log10 GI50 value is on record for COc1cc2ncnc(Nc3ccc(F)c(Cl)c3)c2cc1OCCCN1CCOCC1 ?
[A] 6.04

[Q] Item under review: COC(=O)Nc1nc2cc(C(=O)c3ccccc3)ccc2[nH]1 . Reported -log10 GI50?
[A] 4.9

[Q] Please look up its -log10 GI50: CC(=O)O[C@H]1C(=O)[C@@]2(C)[C@H]([C@H](OC(=O)c3ccccc3)[C@]3(O)C[C@H](OC(=O)[C@H](O)[C@@H](NC(=O)c4ccccc4)c4ccccc4)C(C)=C1C3(C)C)[C@]1(OC(C)=O)CO[C@@H]1C[C@@H]2O
[A] 8.08

[Q] # get_value(readout='-log10 GI50', item= Nc1[nH]nc2nnc(-c3c(-c4ccccc4)nn4ccccc34)cc12 )
[A] 4.56
